Reported values of IC50 for individual entries
Target: T1, human IgE with the M1′ sequence (long form of membrane IgE) expressed on transduced BJAB or Daudi cells (human, UniProt P01854 116-546)
T1 construct: Full-length heavy and light chains of the U266 IgE B cell receptor, retrovirally expressed; also called IgE/M1′; IgE-M1′
T1 sequence (P01854 116-546 I515L limits assumed): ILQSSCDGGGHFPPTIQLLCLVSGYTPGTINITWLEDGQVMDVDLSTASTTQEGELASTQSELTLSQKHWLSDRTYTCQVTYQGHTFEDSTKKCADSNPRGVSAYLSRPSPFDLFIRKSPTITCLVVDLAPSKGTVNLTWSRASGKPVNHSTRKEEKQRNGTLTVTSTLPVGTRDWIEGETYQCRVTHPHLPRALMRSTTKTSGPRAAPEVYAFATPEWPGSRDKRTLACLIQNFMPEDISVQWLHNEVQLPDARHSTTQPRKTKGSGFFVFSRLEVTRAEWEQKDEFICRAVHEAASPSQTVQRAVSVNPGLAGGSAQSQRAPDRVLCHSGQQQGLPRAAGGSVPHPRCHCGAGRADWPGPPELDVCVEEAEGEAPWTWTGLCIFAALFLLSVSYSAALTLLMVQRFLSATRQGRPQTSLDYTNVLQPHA
Assay: competitive ECL binding on BJAB-IgE/M1′ cells vs biotinylated 26A11 or 47H4, 2nd IC50 column
readout.type: IC50 (nM)

- binder: "humanized anti-IgE/M1′ antibody 26A11.v6 (antibody, V domains shown, huIgG1; also called 26A11v6 huIgG1) VH: EVQLVESGGGLVQPGGSLRLSCAASGYTFTDYYIMWVRQAPGKGLEWVGDINPNNYDTSYNQKFKGRFTISADTSKNTAYLQMNSLRAEDTAVYYCASKAYWGQGTLVTVSS VL: DIQMTQSPSSLSASVGDRVTITCRSSQDISNYLNWYQQKPGKAPKLLIYSTSRLHSGVPSRFSGSGSGTDFTLTISSLQPEDFATYYCQQGHTLPWTFGQGTKVEIKR"
  number: 23
- binder: "murine anti-IgE/M1′ antibody 47H4 (antibody, V domains shown, mIgG1 hybridoma antibody; also called mu47H4; 47H4 mIgG1) VH: EVKLVESGGGLVQPGGSRKLSCAASGFTFSDYGMAWVRQAPGKGPEWVAFISDLAYTIYYADTVTGRFTISRENAKNTLYLEMSSLRSEDTALYYCARDNWDAMDYWGQGTSVTVSS VL: DIVLTQTPLSLPVSLGDQASISCRSSQSLVHNNGNTYLHWYLQKPGQSPKLLIYKVSNRFSGVPDRFSGSGSGTDFTLKISRLEAEDLGVYFCSQNTLVPWTFGGGTKVEIKR"
  number: 57
- binder: "humanized anti-IgE/M1′ antibody 26A11.v1 (antibody, V domains shown, direct CDR graft, produced as IgG in 293 cells) VH: EVQLVESGGGLVQPGGSLRLSCAASGYTFTDYYMMWVRQAPGKGLEWVGDINPNNYDTSYNQKFKGRFTISADTSKNTAYLQMNSLRAEDTAVYYCASKAYWGQGTLVTVSS VL: DIQMTQSPSSLSASVGDRVTITCRSSQDISNSLNWYQQKPGKAPKLLIYSTSRLHSGVPSRFSGSGSGTDFTLTISSLQPEDFATYYCQQGHTLPWTFGQGTKVEIKR"
  number: 19

All figures here come from patent US20120149881A1.
